measured.target: T1, human TREM2 (human, UniProt Q9NZC2 19-174, limits assumed)
T1 sequence: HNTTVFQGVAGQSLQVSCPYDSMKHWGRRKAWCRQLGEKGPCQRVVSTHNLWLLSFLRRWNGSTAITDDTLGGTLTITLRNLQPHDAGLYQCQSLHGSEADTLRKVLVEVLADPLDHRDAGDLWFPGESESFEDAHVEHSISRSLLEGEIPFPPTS
experiment.description: yeast-displayed Fab FACS, 2nd screen 100 nM
# maps each entry to its binding signal fold over 6E7 parental
Your answer should be a plain number; it is taken to be in fold.

• V21 (Fab, V domains shown) VH: EVQLVQSGAEVKKPGESLKISCKGSGYSFTSYWIAWVRQMPGKGLEWMGIIYPGDSDTRYSPSFQGQVTISADKSISTAYLQWSSLKASDTAMYFCARQRTFYYDSSDFFDYWGQGTLVTVSS VL: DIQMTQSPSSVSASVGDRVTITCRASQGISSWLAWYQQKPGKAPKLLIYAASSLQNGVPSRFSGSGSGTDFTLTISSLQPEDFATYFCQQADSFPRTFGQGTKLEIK = 0.68

Sample V79 (Fab, V domains shown) VH: EVQLVQSGAEVKKPGESLKISCKGSGYSFTSYWIAWVRQMPGKGLEWMGIIYPGDSDTNYSPSFQGQVTISADKSISTAYLQWSSLKASDTAMYFCARQRTFYYDSSDYFDYWGQGTLVTVSS VL: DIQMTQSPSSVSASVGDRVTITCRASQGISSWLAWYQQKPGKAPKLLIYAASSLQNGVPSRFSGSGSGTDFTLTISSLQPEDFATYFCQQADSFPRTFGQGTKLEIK — what was its binding signal fold over 6E7 parental?
0.52
